read-out: Monocyte Chemoattractant Protein-1 (MCP1), CCL2 (gene 6347); assay: BSK_LPS_MCP1: BioMAP Diversity Plus: LPS Assay for Monocyte Chemoattractant Protein-1 (MCP1) Biomarker Activity (AID 2283081); conditions: primary human HUVEC with PBMC; actives raise or lower the signal
Activity calls are given as the source filed them. The calls were made as follows: active = hit-call score of the fitted dose curve at least 0.9, where 1 is the maximum; inactive = score below 0.9.
Outcome field: choose from true for active, false for inactive

Solved entries:
[[record]]
compound = "CNC(=O)ON=C(SC)C(=O)N(C)C"
class_name = "false"

[[record]]
compound = "CC(=NC#N)N(C)Cc1ccc(Cl)nc1"
class_name = "false"

[[record]]
compound = "CCOP(=S)(OCC)Oc1cc(C)nc(C(C)C)n1"
class_name = "false"

[[record]]
compound = "CCc1cnc(C2=NC(C)(C(C)C)C(=O)N2)c(C(=O)O)c1 (configuration not stated)"
class_name = "false"

[[record]]
compound = "CC(Oc1cccc(Cl)c1)C(=O)O (configuration not stated)"
class_name = "false"


Which outcome was assigned to CCOP(=S)(Oc1cnc(C(C)(C)C)nc1)OC(C)C (configuration not stated) in this test? true

Which outcome was assigned to CSC1=N[C@@](C)(c2ccccc2)C(=O)N1Nc1ccccc1 in this test? true
